molecular target: HLA-A*0301 (human); assay: inhibition of labelled probe peptide binding to purified HLA; conditions: remark: other sources report otherwise
Everything with relative binding ratio lower than 0.002 is Not satisfied; everything else, including exactly 0.002, is Satisfied.

Please review the following examples before continuing.
SSCMGGMNRR [p53 peptide, position 240, 10 amino acids]; Not satisfied
TSSSPQPK [p53 peptide, position 312, 8 amino acids]; Not satisfied
RTEEENLRK [p53 peptide, position 283, 9 amino acids]; Not satisfied
TSRHKKLMFK [p53 peptide, position 377, 10 amino acids]; Satisfied
SSCMGGMNR [p53 peptide, position 240, 9 amino acids]; Satisfied

// query Please indicate if the recorded relative binding ratio for RTEEENLRKK [p53 peptide, position 283, 10 amino acids] meets or exceeds 0.002.
// result Satisfied
